Give self-cleavage for every item shown.
B1: CPEB3 Ribozyme (parent)
chain: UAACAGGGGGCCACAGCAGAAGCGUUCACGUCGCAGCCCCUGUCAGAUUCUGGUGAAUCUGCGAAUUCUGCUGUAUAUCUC

# Variants of: B1
# Experiment: self-cleavage, relative activity (ratio to wild type); higher = more cleavage; in vitro, sequencing
Give your answer as a number; write no unit.

For record C23A U78C the listed self-cleavage is 0.12

For record U54G U67G the listed self-cleavage is 0.14

For record U66C U74C the listed self-cleavage is 0.66

For record U31A G73C the listed self-cleavage is 1.08

For record C14A U69A the listed self-cleavage is 0.48

For record U60C A64C the listed self-cleavage is 0.61

For record A47G U48G the listed self-cleavage is 0.26

For record G6A A35C the listed self-cleavage is 0.3

For record G63A U69C the listed self-cleavage is 0.61

For record C27G A56G the listed self-cleavage is 0.14

For record G46C U51A the listed self-cleavage is 0.25

For record C11U U80A the listed self-cleavage is 0.31

For record C38A A65U the listed self-cleavage is 0.28

For record U48C U76A the listed self-cleavage is 0.72

For record U69A U74A the listed self-cleavage is 0.55

For record U54C U78C the listed self-cleavage is 0.97

For record U41A G63U the listed self-cleavage is 0.3

For record U41C U60A the listed self-cleavage is 0.68

For record A28U U60C the listed self-cleavage is 0.38

For record A56U C68U the listed self-cleavage is 0.55

For record U51G G53C the listed self-cleavage is 1.19

For record G9U A56U the listed self-cleavage is 0.29
